meta.source: patent US20260184782A1

Recorded Kd values for a group of binders are listed next.
studySystem: T1, TIGIT (UniProt Q495A1 22-141, limits assumed)
T1 construct: construct not described; also called T cell immunoreceptor with Ig and ITIM domains
T1 sequence (looked up): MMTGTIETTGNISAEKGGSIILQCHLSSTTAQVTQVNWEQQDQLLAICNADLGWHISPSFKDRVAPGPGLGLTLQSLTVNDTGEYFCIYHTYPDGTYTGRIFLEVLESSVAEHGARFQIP
assayComment: SPR, VHH-V5-His; unit inferred
Remember to quote the unit after the number.

Illustrative cases are given below, each with its answer.
binder	measuredResult
TIGIT-30-15 VHH-V5-His (VHH, not shown: V5 and His tags) VHH: EVQLVESGGGLVQAGGSLRLSCAASGFTFSGNWMGWFRQAPGKEREWVSGISSGGGRTYYADSVKGRFTISADNAKNTVYLQMNSLKPEDTAVYYCAADVWYGSTWRNWGQGTQVTVSS	215 nM
TIGIT-29-12 VHH-V5-His (VHH, not shown: V5 and His tags) VHH: EVQLVESGGGLVQAGGSLRLSCAASGSTFSSYAMGWFRQAPGKEREFVAAITWSGTRTNYADSVKGRFTISADNAKNTVYLQMNSLKPEDTAVYYCAAAAWTIYTYDSWGQGTQVTVSS	8580 nM
TIGIT-30-01 VHH-V5-His (VHH, not shown: V5 and His tags) VHH: EVQLVESGGGLVQAGGSLRLSCAASGFAFSSYWMGWFRQAPGKERELVAARNSGGNTNYADSVKGRFTISADNAKNTVYLQMNSLKPEDTAVYYCAADVWYGSTWRNWGQGTQVTVSS	7460 nM
TIGIT-30-43 VHH-V5-His (VHH, not shown: V5 and His tags) VHH: EVQLVESGGGLVQAGGSLRLSCAASGFTFSTSWMGWFRQAPGKERELVAARNSGGNTNYADSVKGRFTISADNAKNTVYLQMNSLKPEDTAVYYCAADVWYGSTWRNWGQGTQVTVSS	107 nM
TIGIT-29-01 VHH-V5-His (VHH, not shown: V5 and His tags) VHH: EVQLVESGGGLVQAGGSLRLSCAASGRTFSNYAMGWFRQAPGKEREFVAAITWSGTRTDYADSVKGRFTISADNAKNTVYLQMNSLKPEDTAVYYCAAAAWTIYEYDYWGQGTQVTVSS	365 nM

Note: attention shifts to another entry.
Entry TIGIT-29-22 VHH-V5-His (VHH, not shown: V5 and His tags) VHH: EVQLVESGGGLVQAGGSLRLSCAASGSILSSYTMGWFRQAPGKEREFVSTISRSSTRTYYADSVKGRFTISADNAKNTVYLQMNSLKPEDTAVYYCAARLWGTWTAGDYDYWGQGTQVTVSS ; Kd = 500 nM
